Assay: Blood pharmacokinetics (dried blood spot LC-MS/MS, non-compartmental analysis)
Assay type: in vivo, human
Conditions: human, whole blood, oral, 150 mg, 150 mg BID, Cycle 1 Day 1 (single dose), N = 3; geometric mean (% CV); read-out: Vz/F
MEASURED QUANTITY: Vd/F (L)
Provide only the numeric value, understood in L.

Please look up its Vd/F: CO[C@@H](C)Cn1c(=O)n(C)c2cnc3ccc(-c4cncc(C(C)(C)O)c4)cc3c21 [LY3023414] 113

====

Assay: Blood pharmacokinetics (dried blood spot LC-MS/MS, non-compartmental analysis)
Type: in vivo, human
Details: human, whole blood (dried blood spot), oral, Days 1 and 15 in Cycle 1, each dose level; read-out: geometric mean t1/2 (converted)
Method: For PK assessment, blood samples were collected at pre dose and 0.5, 1, 2, 4, 8, and 12 h post dose on 2 occasions: (i) on Day 1 of Cycle 1 (single dose), and (ii) on Day 15 of Cycle 1 (multiple dose). For PD assessment, blood samples were collected at pre dose and 0.5, 1, 2, and 4 h post dose on 2 occasions: (i) on Day 1 of Cycle 1 (single dose), and (ii) on Day 15 of Cycle 1 (multiple dose). […]
MEASURED QUANTITY: half-life

Please look up its half-life: CO[C@@H](C)Cn1c(=O)n(C)c2cnc3ccc(-c4cncc(C(C)(C)O)c4)cc3c21 ~2 h
